- system: UniProt P00734
result.type: IC50

Exercise: Requested field: IC50. Item: N#CCn1c(N2CC3(C2)CC(F)(F)C3)c(-c2ccc(F)c(Cl)c2)c(=O)n(-c2cncc(Cl)c2)c1=O [Compound 17]
Key: > 10 µM

* * *

- assay.protocol: in vitro
- setup.conditions: male, rat, microsomes
// assign t if remaining at 0.5 h falls strictly below 80%, else f (ties count as f)

compound.smiles | cat
Cc1cncc(-n2c(=O)c(Cc3cc(F)c(F)c(F)c3)c(N3CCCC3)n(CC#N)c2=O)c1 | t
N#CCn1c(N2CC(O)(C(F)(F)F)C2)c(-c2ccc(F)c(Cl)c2)c(=O)n(-c2cncc(Cl)c2)c1=O | f
Cc1cncc(-n2c(=O)c(Cc3cc(F)c(F)c(F)c3)c(N3CC4(C3)CC(F)(F)C4)n(CC#N)c2=O)c1 | t
N#CCn1c(N2CC3(CCOC3)C2)c(Cc2cc(F)c(F)c(F)c2)c(=O)n(-c2cncc(Cl)c2)c1=O | t
Cc1cncc(-n2c(=O)c(Cc3ccccc3)c(N3CC4(CCOC4)C3)n(CC#N)c2=O)c1 | t

Exercise: I'd appreciate it if you could check whether `N#CCn1c(N2CC3(C2)CC(F)(F)C3)c(-c2ccc(F)c(Cl)c2)c(=O)n(-c2cncc(Cl)c2)c1=O` has remaining at 0.5 h smaller than 80%.
Key: f

Exercise: I'd appreciate it if you could check whether `Cc1cncc(-n2c(=O)c(Cc3cc(F)c(F)c(F)c3)c(N3CC4(CCOCC4)C3)n(CC#N)c2=O)c1` has remaining at 0.5 h smaller than 80%.
Key: t

Exercise: I'd appreciate it if you could check whether `Cc1cncc(-n2c(=O)[nH]c(N3Cc4ccccc4C3)c(Cc3cc(F)c(F)c(F)c3)c2=O)c1` has remaining at 0.5 h smaller than 80%.
Key: t

Exercise: I'd appreciate it if you could check whether `N#CCn1c(N2CC3(CCOC3)C2)c(-c2ccccc2)c(=O)n(-c2cncc(Cl)c2)c1=O` has remaining at 0.5 h smaller than 80%.
Key: t

Exercise: I'd appreciate it if you could check whether `N#CCn1c(N2CC(F)(F)C2)c(-c2ccc(F)c(Cl)c2)c(=O)n(-c2cncc(Cl)c2)c1=O` has remaining at 0.5 h smaller than 80%.
Key: f

* * *

- assay.protocol: in vitro
- setup.conditions: pig, LLC-PK1
result.type: Papp B→A

compound | Papp B→A
CC(C)(C)[C@H](NC(=O)C(F)(F)F)C(=O)N1C[C@H]2[C@@H]([C@H]1C(=O)N[C@H](C#N)C[C@@H]1CCNC1=O)C2(C)C [nirmatrelvir, reference compound] | 1.42 ×10⁻⁶ cm/s

Now consider a different compound.
Exercise: Requested field: Papp B→A. Item: `N#CCn1c(N2CC3(C2)CC(F)(F)C3)c(-c2ccc(F)c(Cl)c2)c(=O)n(-c2cncc(Cl)c2)c1=O`
Key: 7.36 ×10⁻⁶ cm/s

* * *

- assay.protocol: in vivo
- setup.conditions: male, Sprague-Dawley, rat, iv
result.type: clearance (mL/min/kg)
One number for each entry, in mL/min/kg.

compound | clearance / mL/min/kg
N#CCn1c(N2CC(O)(C(F)(F)F)C2)c(-c2ccc(F)c(Cl)c2)c(=O)n(-c2cncc(Cl)c2)c1=O [Compound 18] | 6.69

Now consider a different compound.
Exercise: Requested field: clearance. Item: N#CCn1c(N2CC3(C2)CC(F)(F)C3)c(-c2ccc(F)c(Cl)c2)c(=O)n(-c2cncc(Cl)c2)c1=O [Compound 17]
Key: 6.79
